Hello, the source for this data is paper PMC6005341, in case you need it.

- System: Aβ42 production in N2A-APPswe cells
- PROCEDURE_TEXT: Aβ42 in conditioned medium of N2A-APPswe cells by ELISA, 18 h treatment
- Type: cell-based
- MEASUREMENT_CONDITIONS: N2a-APPswe, read-out: IC50 in lowering Aβ42 production, N2A-APPswe cells; mean ± standard deviation; n ≥ 3
ASSAY_READOUT: IC50

Some solved entries appear below for comparison.
MOLECULE	IC50
C[C@H]1CC[C@@]2(OC1)O[C@H]1C[C@H]3[C@@H]4CC[C@@H]5C[C@@H](O[C@@H]6O[C@H](CO)[C@H](O[C@@H]7O[C@H](CO)[C@@H](O)[C@H](O)[C@H]7O)[C@H](O)[C@H]6O[C@@H]6O[C@H](CO)[C@@H](O)[C@H](O)[C@H]6O)CC[C@]5(C)[C@H]4CC[C@]3(C)[C@H]1[C@@H]2C [TAV (4), timosaponin A V]	~4.2 µM
C[C@@H]1CC[C@@]2(OC1)O[C@H]1C[C@H]3[C@@H]4CC[C@@H]5C[C@@H](O)CC[C@]5(C)[C@H]4CC[C@]3(C)[C@H]1[C@@H]2C [Smilagenin (24), smilagenin]	> 100 µM
C[C@H]1CC[C@@]2(OC1)O[C@H]1C[C@H]3[C@@H]4CC[C@@H]5C[C@@H](O[C@@H]6O[C@H](CO)[C@H](O)[C@H](O)[C@H]6O)CC[C@]5(C)[C@H]4CC[C@]3(C)[C@H]1[C@@H]2C [TAI (3), timosaponin A I]	~6.1 µM

Here's the next entry for you.
Incoming: # IC50 lookup, item COC1OC(CNC(=O)COC2CCC3(C)C(CCC4C3CCC3(C)C4CC4OC5(CCC(C)CO5)C(C)C43)C2)C(O)C(O)C1O (stereo not drawn) [α-OMe SSG (32), α-OMe SSG]
Outgoing: 7.2 µM
